The reported measurements were obtained from PubChem BioAssay AID1117327.

tested on: C2C12 + WNT3A conditioned medium, alkaline phosphatase; assay: alkaline phosphatase induction in C2C12 cells, dose response, cell-based, WNT3A-conditioned medium (AID 1117327)
Activity calls are given as the source filed them. No rule for the calls is given here. Starred links: 1 amine or outer side, 2 acyl side, 3 side chain; linkers in the order of their positions; H or OH if unused. Positions of bridges follow the written chain, without caps; N, C: chain ends. Non-standard residues stand in square brackets, D forms with d. Residues, ends and D or L forms follow the SMILES beside them. Chains are numbered I, II in the order given. Actinocin(9to1) = Cc1c2oc3c(C)ccc(C(=O)[*:1])c3nc-2c(C(=O)[*:2])c(N)c1=O; NMeV = CN[C@H](C(=O)O)C(C)C; Sar = CNCC(=O)O
Answer each item with its documented IC50.

Lab book: IC50 of CN(C)CCCN1c2ccccc2Sc2ccc(C(F)(F)F)cc21 noted as > 20000 nM (inactive)

Lab book: IC50 of CC[C@@H]([C@H](C)O)n1ncn(-c2ccc(N3CCN(c4ccc(OC[C@@H]5CO[C@@](Cn6cncn6)(c6ccc(F)cc6F)C5)cc4)CC3)cc2)c1=O noted as 1630 nM

Lab book: IC50 of Cc1cc(CC(C)CC(C)(C)C)n(O)c(=O)c1 (centres undefined) noted as > 20000 nM (inactive)

Lab book: IC50 of O=C1C2CC=CCC2C(=O)N1SC(Cl)(Cl)Cl (centres undefined) noted as 511 nM

Lab book: IC50 of Cc1nc2ccc(CN(C)c3ccc(C(=O)N[C@@H](CCC(=O)O)C(=O)O)s3)cc2c(=O)[nH]1 noted as 4.2 nM

Lab book: IC50 of OCCN1CCN(CCCN2c3ccccc3Sc3ccc(Cl)cc32)CC1 noted as > 20000 nM (inactive)

Lab book: IC50 of Cc1cc2c(C(C)C)c(O)c(O)c(C=O)c2c(O)c1-c1c(C)cc2c(C(C)C)c(O)c(O)c(C=O)c2c1O noted as > 20000 nM (inactive)

Lab book: IC50 of COC(=O)c1nc(Cl)c(Cl)nc1N noted as 157 nM

Lab book: IC50 of c1ccc2c(c1)Sc1ccccc1N2CC1CN2CCC1CC2 (centres undefined) noted as > 20000 nM (inactive)

Lab book: IC50 of COc1ccc2cc1Oc1ccc(cc1)C[C@H]1c3c(cc4c(c3Oc3cc5c(cc3OC)CCN(C)[C@@H]5C2)OCO4)CCN1C noted as 2050 nM

Lab book: IC50 of COC(=O)Nc1nc2ccc(C(=O)c3ccccc3)cc2[nH]1 noted as 245 nM

Lab book: IC50 of Cc1c2oc3c(C)ccc(C(=O)N[C@@H]4C(=O)N[C@H](C(C)C)C(=O)N5CCC[C@H]5C(=O)N(C)CC(=O)N(C)[C@@H](C(C)C)C(=O)O[C@@H]4C)c3nc-2c(C(=O)N[C@@H]2C(=O)N[C@H](C(C)C)C(=O)N3CCC[C@H]3C(=O)N(C)CC(=O)N(C)[C@@H](C(C)C)C(=O)O[C@@H]2C)c(N)c1=O (I: T[dV]P[Sar][NMeV] / II: T[dV]P[Sar][NMeV]; ester I:1-I:C, II:1-II:C; linker I:N-II:N via Actinocin(9to1)) noted as 1.5 nM

Lab book: IC50 of COC(=O)Nc1nc2ccc(Sc3ccccc3)cc2[nH]1 noted as 438 nM

Lab book: IC50 of CN1CC[C@H](c2c(O)cc(O)c3c(=O)cc(-c4ccccc4Cl)oc23)[C@H](O)C1 noted as 461 nM

Lab book: IC50 of CCCOc1ccc2nc(NC(=O)OC)[nH]c2c1 noted as 88.1 nM

Lab book: IC50 of CC(=O)[C@]1(O)Cc2c(O)c3c(c(O)c2[C@@H](O[C@H]2C[C@H](N)[C@H](O)[C@H](C)O2)C1)C(=O)c1ccccc1C3=O noted as 504 nM

Lab book: IC50 of NC(N)=NN=C(/C=C/c1ccc([N+](=O)[O-])o1)/C=C/c1ccc([N+](=O)[O-])o1 noted as 372 nM

Lab book: IC50 of CCCCCCCCCCOCC(O)CN (centres undefined) noted as > 20000 nM (inactive)

Lab book: IC50 of COCc1c(C(C)C)nc(C(C)C)c(/C=C/[C@@H](O)C[C@@H](O)CC(=O)O)c1-c1ccc(F)cc1 noted as > 20000 nM (inactive)
